Dear all, this message contains AC50 results, target or system Kappa-type opioid receptor (Homo sapiens). Note: assay procedure not described here.

Please review the entries below; each comes with its answer.
Molecule	Parameter measured	Observed
O=C1C(CC[S+]([O-])c2ccccc2)C(=O)N(c2ccccc2)N1c1ccccc1 (centres undefined)	AC50	> 10 µM
CC1=C(C)C(=O)C(C(CCCCCC(=O)O)c2ccccc2)=C(C)C1=O (centres undefined)	AC50	> 30 µM
CC(C(=O)O)c1ccc(CC2CCCC2=O)cc1 (centres undefined)	AC50	0.66 µM

IN: What value of AC50 has been recorded for this entry: C[C@]12C=CC(=O)N[C@@H]1CC[C@@H]1[C@@H]2CC[C@]2(C)[C@@H](C(=O)Nc3cc(C(F)(F)F)ccc3C(F)(F)F)CC[C@@H]12 [DUTASTERIDE]
OUT: > 10 µM
